# ASSAY SUMMARY: log P determination (HPLC, calibration with unbranched alkan-2-ones)
# Type: physicochemical
# STUDY CONDITIONS: reversed-phase C18 HPLC column; * LC-MS determination in the acidic range at pH 2.7, 0.1% aqueous formic acid and acetonitrile, linear gradient 10% to 95% acetonitrile, reversed-phase C 18; read-out: log p
EXPERIMENTAL ENDPOINT: chromatographic logP
Response field accepts a number only; no unit should be typed.

The recorded chromatographic logP for entry Cc1cc(C(F)(F)F)nn1CC(=O)N1CCC(c2nc(C(=O)OC3CCCCC3)cs2)CC1 [compound 220] equals 3.74

---

# ASSAY SUMMARY: log P determination (HPLC, calibration with unbranched alkan-2-ones)
# Type: physicochemical
# STUDY CONDITIONS: * LC-MS determination in the acidic range at pH 2.7, mobile phases 0.1% aqueous formic acid and acetonitrile (0.1% formic acid), linear gradient 10% to 95% acetonitrile; reversed-phase C 18 HPLC
EXPERIMENTAL ENDPOINT: log p

>>> meas_value("Cc1cc(C(F)(F)F)nn1CC(=O)N1CCC(c2nc(C(=O)OC3CCCCCC3)cs2)CC1")
"4.09*"
>>> meas_value("COc1ccccc1COC(=O)c1csc(C2CCN(C(=O)Cn3nc(C(F)(F)F)cc3C)CC2)n1")
"3.44*"
>>> meas_value("Cc1cc(C)n(C(C)(C)C(=O)N2CCC(c3nc(C(=O)OC4CC(C)CC(C(C)C)C4)cs3)CC2)n1 (stereo not drawn)")
"5.58*"
>>> meas_value("Cc1cc(C(F)(F)F)nn1CC(=O)N1CCC(c2nc(C(=O)OC3CCC(C(C)(C)C)CC3)cs2)CC1 (stereo not drawn)")
"5.19*"

Proceed to the following item.
The recorded log p for entry `Cc1cc(C)n(C(C)(C)C(=O)N2CCC(c3nc(C(=O)OCCN(C)C)cs3)CC2)n1` equals 1.03*
